# experiment: Lipophilicity, log D of compound at pH 7.4
# run conditions: buffer
endpoint: logD

IN: Which value of logD has been reported for `CO[C@H]1/C(F)=C/C[C@H](C)[C@@H](C)S(=O)(=O)NC(=O)c2ccc3c(c2)N(C[C@@H]2CCO[C@H]21)C[C@@]1(CCCc2cc(Cl)ccc21)CO3` in the records?
OUT: 3
